Molecular target: CK2α kinase (Homo sapiens)
Construct: made in house; host or cells: E. coli BL21(DE3) with pUBS520; pBAT4 plasmid
Sequence (P68400 2-329): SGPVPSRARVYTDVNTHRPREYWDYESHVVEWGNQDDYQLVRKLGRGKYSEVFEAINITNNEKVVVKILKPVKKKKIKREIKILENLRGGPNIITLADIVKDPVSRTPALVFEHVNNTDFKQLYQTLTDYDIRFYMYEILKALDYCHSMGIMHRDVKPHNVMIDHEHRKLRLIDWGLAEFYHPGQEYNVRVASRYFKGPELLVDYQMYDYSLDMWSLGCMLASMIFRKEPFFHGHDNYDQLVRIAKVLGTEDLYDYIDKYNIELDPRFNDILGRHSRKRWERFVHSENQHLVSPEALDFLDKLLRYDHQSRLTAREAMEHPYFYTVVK
Assay: SPR binding of CK2α to immobilized CK2β(186–200) / RAD-CK2β
Details: Biacore T100, CM5 chip, ligand immobilized via free cysteine (linear peptide with C-terminal Gly-Cys), 25°C, 10 mM HEPES pH 7.4, 500 mM NaCl, 0.05% P20; data at 200 s post-injection; 1:1 steady-state model; ± from fitting; read-out: Equilibrium dissociation constant (KD), SPR steady-state
MEASUREMENT KIND: pKd
One number for each entry, as −log10 of the molar value.

The recorded pKd for entry CK2β(186–200): synthetic linear peptide, residues 186–200 of human CK2β (RLYGFKIHPMAYQLQ; UniProt P67870 186-200, looked up, fragment) equals 6.39

----------
Target: CK2α kinase (Homo sapiens, UniProt P68400)
Construct: made in house; host or cells: E. coli BL21(DE3) with pUBS520; pBAT4 plasmid
Sequence (P68400 2-329): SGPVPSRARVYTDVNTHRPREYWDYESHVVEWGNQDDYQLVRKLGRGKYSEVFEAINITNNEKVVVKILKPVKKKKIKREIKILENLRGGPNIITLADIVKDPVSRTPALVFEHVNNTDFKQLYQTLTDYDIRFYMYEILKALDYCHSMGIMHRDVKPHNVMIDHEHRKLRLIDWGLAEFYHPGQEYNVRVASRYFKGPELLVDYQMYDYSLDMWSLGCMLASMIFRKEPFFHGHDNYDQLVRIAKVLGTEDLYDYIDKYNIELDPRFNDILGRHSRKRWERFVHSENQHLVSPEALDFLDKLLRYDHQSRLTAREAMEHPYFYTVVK
Test: Affinities for CK2α across the experimental techniques (ITC, SPR, FA)
Format: binding
Details: read-out: KD range between the different experimental techniques
MEASUREMENT KIND: Kd

Input CK2β(186–200): synthetic linear peptide, residues 186–200 of human CK2β (RLYGFKIHPMAYQLQ; UniProt P67870 186-200, looked up, fragment) . Output Kd: 138 to 407 nM

----------
Molecular target: CK2α kinase (Homo sapiens, UniProt P68400)
Construct: made in house; host or cells: E. coli BL21(DE3) with pUBS520; pBAT4 plasmid
Sequence (P68400 2-329): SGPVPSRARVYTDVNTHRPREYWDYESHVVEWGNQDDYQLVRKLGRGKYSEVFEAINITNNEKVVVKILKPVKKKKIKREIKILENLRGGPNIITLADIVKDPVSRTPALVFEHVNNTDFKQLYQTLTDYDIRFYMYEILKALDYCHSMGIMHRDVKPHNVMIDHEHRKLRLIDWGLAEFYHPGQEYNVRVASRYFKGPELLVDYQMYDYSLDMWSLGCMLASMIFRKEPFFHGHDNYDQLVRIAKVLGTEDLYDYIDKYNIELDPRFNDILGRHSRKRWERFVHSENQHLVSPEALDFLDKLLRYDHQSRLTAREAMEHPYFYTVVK
Assay: Fluorescence anisotropy direct binding of labeled CK2β(186–200) / RAD-CK2β
Conditions: fluorescein-labeled linear peptide or Alexa Fluor 488-labeled cRAD-CK2β(186–200); 10 mM HEPES pH 7.4, 500 mM NaCl, 1 mM DTT, 0.05% P20; CK2α 2 nM–2 μM; 15 min room temperature; 1:1 model; ± from fitting; read-out: Equilibrium dissociation constant (KD), FA
MEASUREMENT KIND: Kd (µM)
One number for each entry, in µM.

Tested on CK2α kinase (Homo sapiens, UniProt P68400): CK2β(186–200): synthetic linear peptide, residues 186–200 of human CK2β (RLYGFKIHPMAYQLQ; UniProt P67870 186-200, looked up, fragment) . Observed Kd: 0.348
